- method: Toxicity in iv dosed rat
- Assay type: organism-based
- condition.parameters: in vivo
endpoint: LD50

Lookup result for Clc1ccc(C2CC3CCC2N3)cn1 (stereo in doubt; (+)) [EPIBATIDINE] ; measured LD50: < 0.125 µmol/kg

###

- assayed.system: Histamine H3 receptor (Homo sapiens, UniProt Q9Y5N1)
- Sequence (Q9Y5N1 whole entry): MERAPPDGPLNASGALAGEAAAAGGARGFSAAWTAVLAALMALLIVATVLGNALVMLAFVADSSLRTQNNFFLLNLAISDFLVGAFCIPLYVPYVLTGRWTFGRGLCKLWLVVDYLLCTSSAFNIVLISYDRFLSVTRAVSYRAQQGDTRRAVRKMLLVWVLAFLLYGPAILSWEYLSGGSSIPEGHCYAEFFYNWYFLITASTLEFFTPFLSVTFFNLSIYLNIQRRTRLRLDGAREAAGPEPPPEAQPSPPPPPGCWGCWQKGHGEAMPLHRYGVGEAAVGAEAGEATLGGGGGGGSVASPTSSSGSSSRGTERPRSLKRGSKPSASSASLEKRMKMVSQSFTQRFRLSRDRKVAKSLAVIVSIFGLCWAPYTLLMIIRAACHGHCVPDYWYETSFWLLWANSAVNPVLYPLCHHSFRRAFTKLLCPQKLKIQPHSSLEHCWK
endpoint: IC50

Lookup result for `CN(C)CC/C=C/c1cccnc1` ; measured IC50: > 10 µM

###

- assayed.system: UniProt:P08483
- Sequence (P08483 whole entry): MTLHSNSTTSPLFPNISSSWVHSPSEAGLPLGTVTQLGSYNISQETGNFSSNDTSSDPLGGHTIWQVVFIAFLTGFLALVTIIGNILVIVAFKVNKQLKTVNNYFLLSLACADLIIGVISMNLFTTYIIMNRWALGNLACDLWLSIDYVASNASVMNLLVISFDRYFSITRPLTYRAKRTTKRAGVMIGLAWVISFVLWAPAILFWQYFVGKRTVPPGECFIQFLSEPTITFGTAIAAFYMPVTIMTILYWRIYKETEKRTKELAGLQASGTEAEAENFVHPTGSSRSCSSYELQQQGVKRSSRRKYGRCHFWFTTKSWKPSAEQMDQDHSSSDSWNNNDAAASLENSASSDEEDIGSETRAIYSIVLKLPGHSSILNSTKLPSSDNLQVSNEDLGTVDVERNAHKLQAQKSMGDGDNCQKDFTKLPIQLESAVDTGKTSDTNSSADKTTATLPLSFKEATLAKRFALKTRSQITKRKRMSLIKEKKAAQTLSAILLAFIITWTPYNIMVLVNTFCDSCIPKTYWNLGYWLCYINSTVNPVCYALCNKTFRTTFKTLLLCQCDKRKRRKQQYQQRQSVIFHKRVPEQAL
# pIC50 values compiled below
// returns pIC50 (minus log10 of molar concentration), number only

Worked set:
c1cc2c[n+](c1)CCCCCCCCCCCCCCc1ccc[n+](c1)CCCCCCCCCCCCCC2 ... 3.21
c1cc2c[n+](c1)CCCCCCCCCCCCCc1ccc[n+](c1)CCCCCCCCCCCC2 ... 3.83
c1cc2c[n+](c1)CCCCCCCCCCCCCCc1ccc[n+](c1)CCCCCCCCCCCCC2 ... 3.47
c1cc2c[n+](c1)CCCCCCCCCCCCCc1ccc[n+](c1)CCCCCCCCCCCCC2 ... 3.71
c1cc2c[n+](c1)CCCCCCCCCCCCCCc1ccc[n+](c1)CCCCCCCCCCCC2 ... 3.55

Lookup result for `c1cc2c[n+](c1)CCCCCCCCCCCCc1ccc[n+](c1)CCCCCCCCCCCC2` ; measured pIC50: 4.01

These data points were gathered from ChEMBL document CHEMBL4673260.
